assay: Solubility of bilastine and mometasone furoate monohydrate in Kolliphor RH40 formulations (Example 4); assay type: physicochemical; conditions: aqueous with cosolvent or surfactant or cyclodextrin, thermodynamic from solid
test readout: solubility

Prompt: # query: solubility of entry CCOCCn1c(C2CCN(CCc3ccc(C(C)(C)C(=O)O)cc3)CC2)nc2ccccc21
Completion: < 8000 µg/mL

###

experiment: Solubility of bilastine and mometasone furoate monohydrate in formulations with HPBCD 12.5 to 100 mg/mL at pH 4.3, 4.6, 4.9 (Example 3); assay type: physicochemical; conditions: aqueous with cosolvent or surfactant or cyclodextrin, thermodynamic from solid
test readout: solubility

Prompt: What does the record list as solubility for CCOCCn1c(C2CCN(CCc3ccc(C(C)(C)C(=O)O)cc3)CC2)nc2ccccc21 [Bilastine] ?
Completion: ≥ 8000 µg/mL

The origin of these recorded values is patent US11642309B2.
